Source listed as ChEMBL document CHEMBL2390901.

Target Desc: RAC-alpha serine/threonine-protein kinase (Homo sapiens) (UniProt P31749)
Sequence (P31749 whole entry): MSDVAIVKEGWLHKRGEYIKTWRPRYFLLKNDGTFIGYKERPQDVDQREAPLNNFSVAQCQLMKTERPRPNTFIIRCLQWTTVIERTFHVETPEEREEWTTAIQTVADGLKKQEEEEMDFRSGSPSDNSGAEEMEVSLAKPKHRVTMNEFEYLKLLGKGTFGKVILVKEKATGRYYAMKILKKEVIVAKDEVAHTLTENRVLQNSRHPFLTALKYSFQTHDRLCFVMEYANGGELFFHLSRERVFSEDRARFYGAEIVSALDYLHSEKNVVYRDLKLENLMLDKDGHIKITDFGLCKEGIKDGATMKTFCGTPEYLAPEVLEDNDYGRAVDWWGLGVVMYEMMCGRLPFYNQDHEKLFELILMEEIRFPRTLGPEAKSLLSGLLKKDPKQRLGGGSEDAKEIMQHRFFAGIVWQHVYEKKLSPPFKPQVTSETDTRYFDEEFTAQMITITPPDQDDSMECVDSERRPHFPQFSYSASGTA
Assay Explanation: Inhibition of AKT1 (unknown origin) at 10 uM after 30 mins by fluorescence assay
Property Measured: inhibition (%)

>>> df
                                smiles_repr  data_value
0  O=C(Nc1cc(Sc2ncn[nH]2)c(O)c2ccccc12)c1ccccc1[N+](=O)[O-]        85.8
1  Cn1nnnc1Sc1cc(NC(=O)c2ccc(Cl)cc2)c2ccccc2c1O        13.1
2  O=C(/C=C/c1ccccc1)Nc1cc(Sc2ncn[nH]2)c(O)c2ccccc12        26.1
3  O=C(Nc1cc(Sc2ncn[nH]2)c(O)c2ccccc12)c1ccc([N+](=O)[O-])cc1        37.3
4  O=C(Nc1cc(Sc2ncn[nH]2)c(O)c2ccccc12)c1cccc(Cl)c1          46

[A] O=C(Nc1cc(Sc2ncn[nH]2)c(O)c2ccccc12)c1ccc(Cl)cc1
[B] O=C(Nc1cc(Sc2ncn[nH]2)c(O)c2ccccc12)c1cccc([N+](=O)[O-])c1
-- ask I would appreciate it if you could say which entry, A or B , has the lower inhibition value. Reply briefly: the label of your chosen item.
-- reply B

###

System: K562
Assay Explanation: Antiproliferative activity against human K562 cells after 48 hrs by MTT assay
Format: functional, cell-based
Test Parameters: K562, 48 h
Property Measured: IC50 (µM)

>>> df
                                smiles_repr  data_value
0  O=C(Nc1cc(Sc2ncn[nH]2)c(O)c2ccccc12)c1ccc(Cl)cc1        18.8
1  O=C(Nc1cc(Sc2ncnc3nc[nH]c23)c(O)c2ccccc12)c1ccccc1[N+](=O)[O-]        37.2

[a] O=C(Nc1cc(Sc2ncn[nH]2)c(O)c2ccccc12)c1ccccc1[N+](=O)[O-]
[b] O=C(Nc1cc(Sc2ncnc3nc[nH]c23)c(O)c2ccccc12)c1ccc(Cl)cc1
-- ask Lowest IC50? choose a or b Pick one and reply with its label.
-- reply a
(a: 10.8 µM, b: 16.9 µM)
